Data provenance: ChEMBL document CHEMBL5126585

Experiment: Cytotoxicity against IL2 independent FL-4 cells assessed as reduction in cell viability measured after 7 days by MTT assay
Format: toxicity, cell-based, Felis catus
Conditions: cat, time 7 day
Measured endpoint: CC50 at 168 h (µM)
Kindly provide the numeric value in µM only, without the unit symbol.

- Compound: "FC(F)(F)Oc1ccc(/N=c2\\ssnc2Cl)cc1Cl"
  CC50 at 168 h [µM]: 23
- Compound: "Clc1nss/c1=N\\c1ccccc1Br"
  CC50 at 168 h [µM]: 39
- Compound: "CCOc1cccnc1/N=c1\\ssnc1Cl"
  CC50 at 168 h [µM]: 49

Now let's try a different one.
Reported CC50 at 168 h for "Clc1nss/c1=N\c1ccc(I)cc1" was 49

* * *

Assay: Cytotoxicity against FEA cells assessed as reduction in cell viability incubated for 24 hrs by MTT assay
Type: toxicity, cell-based, Felis catus
Conditions: cat
// values below are reported CC50 at 24 h
Your answer should be a plain number; it is taken to be in µM.

Field: example entries. Status: answers known.
- Compound: "Clc1ccc(/N=c2\\ssnc2Cl)cc1"
  CC50 at 24 h / µM: 51
- Compound: "O=[N+]([O-])c1ccc(/N=c2\\ssnc2Cl)cc1"
  CC50 at 24 h / µM: 50

Please find the next compound below.
// CC50 at 24 h lookup, compound = "N#Cc1ccc(/N=c2\ssnc2Cl)cc1" , result: 50

* * *

Listing: CC50 at 168 h of selected compounds
Assay: Cytotoxicity against IL2 independent FL-4 cells assessed as reduction in cell viability measured after 7 days by MTT assay
Type: toxicity, cell-based, Felis catus
Details: cat, time 7 day

Below, each entry is followed by its recorded CC50 at 168 h result.
- Compound: "FC(F)(F)c1ccc(/N=c2\\ssnc2Cl)cc1"
  CC50 at 168 h: "> 100 µM"
- Compound: "FC(F)(F)Oc1ccc(/N=c2\\ssnc2Cl)cc1Br"
  CC50 at 168 h: "> 100 µM"
- Compound: "CCCCOc1ccc(/N=c2\\ssnc2Cl)cc1"
  CC50 at 168 h: "> 100 µM"

With those in mind, consider the next compound.
CC50 at 168 h reported for this compound "N#Cc1ccc(/N=c2\ssnc2Cl)cc1" : > 100 µM
